Data origin: ChEMBL document CHEMBL1149346

Parameter pIC50: see the listing below.
System: MCF7
Assay: Antiproliferative activity against human MCF7 cell line by MTT assay
Format: functional, cell-based
pIC50: −log10 of the molar value.

| compound | tested on | qualifier symbol | pIC50 |
| --- | --- | --- | --- |
| O=P([O-])(O)C(O)(C[n+]1cccc(F)c1)P(=O)(O)O (stereo not given) | MCF7 | = | 4.24 |
| O=P([O-])(O)C(O)(C[n+]1cccc(Cc2ccccc2)c1)P(=O)(O)O (stereo not given) | MCF7 | = | 4.16 |
| O=P(O)(O)C(O)(Cc1cccc(-c2ccccc2-c2ccccc2)c1)P(=O)(O)O | MCF7 | = | 4.03 |
| O=P([O-])(O)C(C[n+]1ccc(-c2cccc(-c3ccccc3)c2)cc1)P(=O)(O)O (stereo not given) | MCF7 | < | 2.00 |
| Cc1ccc[n+](CC(O)(P(=O)([O-])O)P(=O)(O)O)c1 (stereo not given) | MCF7 | = | 4.01 |
| O=P([O-])(O)C(O)(C[n+]1cccc(-c2ccc(C(F)(F)F)cc2)c1)P(=O)(O)O (stereo not given) | MCF7 | = | 4.84 |
| O=P([O-])(O)C(O)(C[n+]1cccc(-c2ccc(F)cc2)c1)P(=O)(O)O (stereo not given) | MCF7 | = | 4.76 |
| N#Cc1cccc(CC(P(=O)(O)O)P(=O)(O)O)c1 | MCF7 | < | 3.00 |
| CCc1ccc[n+](CC(P(=O)([O-])O)P(=O)(O)O)c1 (stereo not given) | MCF7 | = | 4.37 |
| O=P([O-])(O)C(C[n+]1cccc(I)c1)P(=O)(O)O (stereo not given) | MCF7 | = | 3.91 |
| O=P([O-])(O)C(C[n+]1ccc2ccccc2c1)P(=O)(O)O (stereo not given) | MCF7 | < | 2.00 |
| CN(CCCCc1ccccc1)CCC(O)(P(=O)(O)O)P(=O)(O)O | MCF7 | = | 4.08 |
| O=P([O-])(O)C(C[n+]1ccc(-c2ccc(-c3ccccc3)cc2)cc1)P(=O)(O)O (stereo not given) | MCF7 | < | 2.00 |
| O=P(O)(O)C(O)(Cc1ccc(-c2ccccc2-c2ccccc2)cc1)P(=O)(O)O | MCF7 | = | 2.97 |
| O=P([O-])(O)C(O)(C[n+]1ccc(-c2ccncc2)cc1)P(=O)(O)O (stereo not given) | MCF7 | < | 2.00 |
| CN(C)c1cc[n+](CC(O)(P(=O)([O-])O)P(=O)(O)O)cc1 (stereo not given) | MCF7 | < | 2.00 |
| O=P([O-])(O)C(C[n+]1ccc(Cc2ccccc2)cc1)P(=O)(O)O (stereo not given) | MCF7 | = | 3.90 |
| O=P([O-])(O)C(C[n+]1ccc(C(F)(F)F)cc1)P(=O)(O)O (stereo not given) | MCF7 | < | 2.00 |
| CC(C)(C)C(=O)OCOP(=O)(OCOC(=O)C(C)(C)C)C(Cc1cccc(-c2cccc(-c3ccccc3)c2)c1)P(=O)(OCOC(=O)C(C)(C)C)OCOC(=O)C(C)(C)C | MCF7 | = | 5.58 |
| CCc1ccc[n+](CC(O)(P(=O)([O-])O)P(=O)(O)O)c1 (stereo not given) | MCF7 | = | 4.29 |
